These data points were gathered from ChEMBL document CHEMBL1201862.

Entries and their GI50 values follow.
System: M19-MEL
Experiment: NCI tumour cell line growth inhibition, 48 h
Active and inactive are the calls of the source. No stated cut-off is given here; in the data, active = GI50 up to about 1.1 µM and inactive = higher.
Readout Kind: GI50

[[record]]
molecule = "CC1NC(=O)CC(c2ccccc2)N(N=O)C1c1ccccc1 (stereo not given)"
target_entity = "M19-MEL"
result = "55.7 µM (inactive)"

[[record]]
molecule = "CC(=O)OC12c3ccccc3C1CCCC21OCCCO1 (stereo not given)"
target_entity = "M19-MEL"
result = "> 100 µM (inactive)"

[[record]]
molecule = "CN(/N=C/c1cccc2cccnc12)c1ccccc1"
target_entity = "M19-MEL"
result = "> 100 µM (inactive)"

[[record]]
molecule = "COc1ccc2c(c1)CC[C@@H]1C2CC[C@](C)(C#N)C1CC#N (stereo not given in full)"
target_entity = "M19-MEL"
result = "> 100 µM (inactive)"

[[record]]
molecule = "Cc1cc(C)c2c(c1)N[S@@](=O)S2"
target_entity = "M19-MEL"
result = "21.7 µM (inactive)"

[[record]]
molecule = "C[N+](C)(C)C.FC(F)(F)C1(C(F)(F)F)O[SiH-]2(OC(C(F)(F)F)(C(F)(F)F)c3ccccc32)c2ccccc21"
target_entity = "M19-MEL"
result = "18.2 µM (inactive)"

[[record]]
molecule = "N=C(N)NS(=O)(=O)c1ccc(NC(=O)c2cccc3c(Nc4ccc(S(N)(=O)=O)cc4)c4ccccc4nc23)cc1"
target_entity = "M19-MEL"
result = "> 100 µM (inactive)"

[[record]]
molecule = "COC(=O)c1s/c(=N\\C(=S)N(C)C)n(-c2ccc(Cl)cc2)c1C(=O)OC"
target_entity = "M19-MEL"
result = "> 100 µM (inactive)"

[[record]]
molecule = "O/N=C1\\CCCCC1C(NO)c1ccccc1 (stereo not given)"
target_entity = "M19-MEL"
result = "> 100 µM (inactive)"

[[record]]
molecule = "CC1(C)CC(=O)C(/C(=N/NC(=S)NN)C(=O)Nc2nc3ccc([N+](=O)[O-])cc3s2)C(=O)C1"
target_entity = "M19-MEL"
result = "> 100 µM (inactive)"


----------
System: CAKI-1
Experiment: NCI tumour cell line growth inhibition, 48 h
Activity calls are given as the source filed them. Rule as the data show it: active = GI50 up to about 1.1 µM and inactive = higher.
Readout Kind: GI50

[[record]]
compound = "O=[N+]([O-])/C=C/c1c(Cl)cccc1Cl"
readout_kind = "GI50"
result = "3.66 µM (inactive)"

[[record]]
compound = "COC1OC2COC(=O)c3cc(O)c(O)c(O)c3-c3c(cc(O)c(O)c3O)C(=O)OC2C(O)C1O (stereo not given)"
readout_kind = "GI50"
result = "63.8 µM (inactive)"

[[record]]
compound = "CCCCCCCCC/C=C1/CC(CO)(COC(=O)CC(C(C)C)C(C)C)OC1=O (stereo not given)"
readout_kind = "GI50"
result = "4.18 µM (inactive)"

[[record]]
compound = "C=C1C/C(=C/C)C(=O)O[C@@H]2CCN3CC=C(COC(=O)[C@]1(C)O)[C@H]23"
readout_kind = "GI50"
result = "> 100 µM (inactive)"

[[record]]
compound = "O=C(N/N=C\\c1cccc(O)c1)c1ccncc1"
readout_kind = "GI50"
result = "> 100 µM (inactive)"

[[record]]
compound = "O=C(O)CC1(C(=O)O)CCCCC1"
readout_kind = "GI50"
result = "> 100 µM (inactive)"

[[record]]
compound = "Cc1ccccc1C1OC(=O)c2ccc3ccccc3c21 (stereo not given)"
readout_kind = "GI50"
result = "6.21 µM (inactive)"

[[record]]
compound = "CC(=O)OCC1OC(On2ccccc2=S)C(OC(C)=O)C(OC(C)=O)C1OC(C)=O (stereo not given)"
readout_kind = "GI50"
result = "> 100 µM (inactive)"

[[record]]
compound = "CC(=O)O[C@H]1CC[C@@]2(C)C(=CC[C@H]3[C@@H]4C/C(=C\\c5ccncc5)[C@H](OC(C)=O)[C@@]4(C)CC[C@@H]32)C1"
readout_kind = "GI50"
result = "11.2 µM (inactive)"

[[record]]
compound = "Nc1ncnc2c1ccn2COC(CO)CO"
readout_kind = "GI50"
result = "> 100 µM (inactive)"


----------
System: IGROV-1
Test: NCI tumour cell line growth inhibition, 48 h
The source made the active and inactive calls. Cut-off read from the data, not from the text of the source: active = GI50 up to about 1.1 µM and inactive = higher.
Readout Kind: GI50

[[record]]
compound = "C=C1C/C(=C/C)C(=O)O[C@@H]2CCN3CC=C(COC(=O)[C@]1(C)O)[C@H]23"
readout_kind = "GI50"
result = "> 100 µM (inactive)"

[[record]]
compound = "CCOc1ccc(C(=O)/C=C2/Nc3ccccc3N/C2=C/C(=O)c2ccc(OCC)cc2)cc1"
readout_kind = "GI50"
result = "57.9 µM (inactive)"

[[record]]
compound = "Cc1ccc(Nc2cccc3c2C(=O)c2cccc(Nc4ccc(C)cc4S(=O)(=O)O)c2C3=O)c(S(=O)(=O)O)c1"
readout_kind = "GI50"
result = "> 100 µM (inactive)"

[[record]]
compound = "O=C(Nc1ccccc1Cl)c1ccc([N+](=O)[O-])cc1"
readout_kind = "GI50"
result = "> 100 µM (inactive)"

[[record]]
compound = "COC(=O)c1ccc2c(c1)CC1(C2)Cc2ccc3c(c2C1)CCC3 (stereo unspecified)"
readout_kind = "GI50"
result = "42.8 µM (inactive)"

[[record]]
compound = "Cc1ccc(C(=O)Nc2ccc(S(=O)(=O)O)c3cc(S(=O)(=O)O)cc(S(=O)(=O)O)c23)cc1NC(=O)Nc1cc(C(=O)Nc2ccc(S(=O)(=O)O)c3cc(S(=O)(=O)O)cc(S(=O)(=O)O)c23)ccc1C"
readout_kind = "GI50"
result = "> 87.5 µM (inactive)"

[[record]]
compound = "CCOc1ccc(NC(=O)CC2SC(N)=NC2=O)cc1 (stereo unspecified)"
readout_kind = "GI50"
result = "> 100 µM (inactive)"

[[record]]
compound = "O=C(O)CC1(C(=O)O)CCCCC1"
readout_kind = "GI50"
result = "> 100 µM (inactive)"

[[record]]
compound = "O=C(/C=C/c1ccc(O)c(O)c1)OC1C[C@@](O)(C(=O)O)C[C@@H](O)[C@H]1OC(=O)/C=C/c1ccc(O)c(O)c1 (stereo partly specified)"
readout_kind = "GI50"
result = "> 100 µM (inactive)"

[[record]]
compound = "CC1=C2O[B-](c3ccccc3)(c3ccccc3)[O+]=C2C=CN1"
readout_kind = "GI50"
result = "61.7 µM (inactive)"

[[record]]
compound = "O/N=C1\\CCCCC1C(NO)c1ccccc1 (stereo unspecified)"
readout_kind = "GI50"
result = "> 100 µM (inactive)"

[[record]]
compound = "Cn1c(=O)c2c(nc3n2CCCC(=O)N3CCCCl)n(C)c1=O"
readout_kind = "GI50"
result = "> 100 µM (inactive)"

[[record]]
compound = "CCOC(=O)Cn1c2ccccc2c(=O)c2cc(C)c(C)c(C#N)c21"
readout_kind = "GI50"
result = "> 100 µM (inactive)"

[[record]]
compound = "COC(=O)CC1CN(C(=O)OCc2ccccc2)C(C)(C)O1 (stereo unspecified)"
readout_kind = "GI50"
result = "82.2 µM (inactive)"

[[record]]
compound = "CCOC(=O)NC1CC2CCC1(OC)C=C2C (stereo unspecified)"
readout_kind = "GI50"
result = "> 100 µM (inactive)"

[[record]]
compound = "COc1ccc(/N=N\\c2c(N)nn3c(SC)c(C#N)c(N)nc23)cc1"
readout_kind = "GI50"
result = "1.82 µM (inactive)"

[[record]]
compound = "Oc1ccc(-c2nc3ccc(Br)cc3s2)cc1"
readout_kind = "GI50"
result = "12.9 µM (inactive)"

[[record]]
compound = "NC(=O)/C=C/NC(=O)/C=N\\O"
readout_kind = "GI50"
result = "> 100 µM (inactive)"

[[record]]
compound = "COc1cccc(-c2nc(-c3cnccn3)n(COCCO)n2)c1"
readout_kind = "GI50"
result = "> 100 µM (inactive)"

[[record]]
compound = "O=C1C(NCCc2ccc(O)c([N+](=O)[O-])c2)=CC(=O)c2[nH]cnc21"
readout_kind = "GI50"
result = "29.9 µM (inactive)"

[[record]]
compound = "CN(Cc1cccc2ccccc12)Cc1cccc2ccccc12"
readout_kind = "GI50"
result = "32.2 µM (inactive)"


----------
Test system: TK-10
Test: NCI tumour cell line growth inhibition, 48 h
Active and inactive are the calls of the source. Cut-off read from the data, not from the text of the source: active = GI50 up to about 1.1 µM and inactive = higher. Where a SMILES comes first, the peptide text is derived from it. The star is where a group is joined. Boc = CC(C)(C)OC(=O)*; Bn = c1ccc(C*)cc1
Readout Kind: GI50

[[record]]
compound = "COC(=O)C(CC(C)C)NC(=O)C(C)NC(=O)C(Cc1ccc(OCc2ccccc2)cc1)NC(=O)C(COCc1ccccc1)NC(=O)OC(C)(C)C (stereo not given) (Boc-S(Bn)Y(Bn)AL-OMe; configuration not given here)"
result = "> 100 µM (inactive)"

[[record]]
compound = "COc1ccc(C(C)NNC(=O)c2ccncc2)cc1F (stereo not given)"
result = "> 100 µM (inactive)"

[[record]]
compound = "CC1C=CC(O)[C@]2(CO)CC3(CCC12)OCCO3 (stereo not given in full)"
result = "> 100 µM (inactive)"

[[record]]
compound = "C/C=C1/CN2CCC34c5ccccc5N5C(=O)C(C6CC78c9ccccc9N9C(=O)C=CC(C%10CC7N6C/C%10=C/C)C98)=CC(C1CC23)C54 (stereo not given)"
result = "7.52 µM (inactive)"

[[record]]
compound = "O=c1[nH]c2ccsc2c(=O)n1COCc1ccccc1"
result = "> 100 µM (inactive)"

